TARGET OR SYSTEM: MAP2K5 (Homo sapiens, UniProt Q13163)
Sequence (Q13163 whole entry): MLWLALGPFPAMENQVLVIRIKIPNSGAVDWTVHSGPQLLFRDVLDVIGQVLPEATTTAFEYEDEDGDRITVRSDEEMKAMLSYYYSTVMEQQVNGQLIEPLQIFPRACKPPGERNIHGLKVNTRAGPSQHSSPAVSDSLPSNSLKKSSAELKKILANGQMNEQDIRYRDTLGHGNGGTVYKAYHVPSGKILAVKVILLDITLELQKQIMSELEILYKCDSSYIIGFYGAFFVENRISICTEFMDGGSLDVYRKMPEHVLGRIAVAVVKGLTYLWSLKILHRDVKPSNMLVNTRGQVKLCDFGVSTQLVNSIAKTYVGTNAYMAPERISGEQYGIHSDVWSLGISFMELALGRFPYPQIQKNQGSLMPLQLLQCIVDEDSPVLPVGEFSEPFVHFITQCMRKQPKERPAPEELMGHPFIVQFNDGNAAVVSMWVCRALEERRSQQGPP
ASSAY NOTES: biochemical
Set-up: species or system HEK293/K-562/placenta mixed human extract; Kinobeads chemoproteomic competition binding, quantified by TMT LC-MS/MS, dose response up to 20 uM
pIC50: −log10 of the molar value.
RECORDED METRIC: pIC50

Give me measured pIC50, please, for this molecule: COc1nc(N[C@H]2CC[C@H](NS(=O)(=O)CC(C)C)CC2)nc2[nH]nc(N3CCOC[C@H]3C)c12 [compound 39]
≤ 4.70

----------
TARGET OR SYSTEM: MKNK2 (Homo sapiens, UniProt Q9HBH9)
Sequence (Q9HBH9 whole entry): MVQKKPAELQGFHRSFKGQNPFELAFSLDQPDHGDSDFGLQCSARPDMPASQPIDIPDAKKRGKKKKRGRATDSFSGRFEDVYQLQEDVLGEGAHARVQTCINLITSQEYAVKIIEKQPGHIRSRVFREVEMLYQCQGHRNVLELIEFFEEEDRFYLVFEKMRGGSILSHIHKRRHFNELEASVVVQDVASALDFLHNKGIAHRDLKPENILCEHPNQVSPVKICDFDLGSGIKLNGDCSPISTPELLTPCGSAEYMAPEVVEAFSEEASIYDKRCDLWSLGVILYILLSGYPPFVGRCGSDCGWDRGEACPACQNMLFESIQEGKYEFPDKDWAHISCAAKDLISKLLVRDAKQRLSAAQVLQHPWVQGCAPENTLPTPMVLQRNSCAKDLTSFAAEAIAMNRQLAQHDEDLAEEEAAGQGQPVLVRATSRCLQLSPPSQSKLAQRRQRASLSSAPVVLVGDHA
ASSAY NOTES: biochemical
Parameters: species or system HEK293/K-562/placenta mixed human extract; Kinobeads chemoproteomic competition binding, quantified by TMT LC-MS/MS, dose response up to 20 uM
pIC50: −log10 of the molar value.
RECORDED METRIC: pIC50

Using known records, supply pIC50 for COc1nc(N[C@H]2CC[C@H](NS(=O)(=O)CC(C)C)CC2)nc2[nH]nc(N3CCOC[C@H]3C)c12
≤ 4.70

----------
TARGET OR SYSTEM: NRK (Homo sapiens, UniProt Q7Z2Y5)
Sequence (Q7Z2Y5 whole entry): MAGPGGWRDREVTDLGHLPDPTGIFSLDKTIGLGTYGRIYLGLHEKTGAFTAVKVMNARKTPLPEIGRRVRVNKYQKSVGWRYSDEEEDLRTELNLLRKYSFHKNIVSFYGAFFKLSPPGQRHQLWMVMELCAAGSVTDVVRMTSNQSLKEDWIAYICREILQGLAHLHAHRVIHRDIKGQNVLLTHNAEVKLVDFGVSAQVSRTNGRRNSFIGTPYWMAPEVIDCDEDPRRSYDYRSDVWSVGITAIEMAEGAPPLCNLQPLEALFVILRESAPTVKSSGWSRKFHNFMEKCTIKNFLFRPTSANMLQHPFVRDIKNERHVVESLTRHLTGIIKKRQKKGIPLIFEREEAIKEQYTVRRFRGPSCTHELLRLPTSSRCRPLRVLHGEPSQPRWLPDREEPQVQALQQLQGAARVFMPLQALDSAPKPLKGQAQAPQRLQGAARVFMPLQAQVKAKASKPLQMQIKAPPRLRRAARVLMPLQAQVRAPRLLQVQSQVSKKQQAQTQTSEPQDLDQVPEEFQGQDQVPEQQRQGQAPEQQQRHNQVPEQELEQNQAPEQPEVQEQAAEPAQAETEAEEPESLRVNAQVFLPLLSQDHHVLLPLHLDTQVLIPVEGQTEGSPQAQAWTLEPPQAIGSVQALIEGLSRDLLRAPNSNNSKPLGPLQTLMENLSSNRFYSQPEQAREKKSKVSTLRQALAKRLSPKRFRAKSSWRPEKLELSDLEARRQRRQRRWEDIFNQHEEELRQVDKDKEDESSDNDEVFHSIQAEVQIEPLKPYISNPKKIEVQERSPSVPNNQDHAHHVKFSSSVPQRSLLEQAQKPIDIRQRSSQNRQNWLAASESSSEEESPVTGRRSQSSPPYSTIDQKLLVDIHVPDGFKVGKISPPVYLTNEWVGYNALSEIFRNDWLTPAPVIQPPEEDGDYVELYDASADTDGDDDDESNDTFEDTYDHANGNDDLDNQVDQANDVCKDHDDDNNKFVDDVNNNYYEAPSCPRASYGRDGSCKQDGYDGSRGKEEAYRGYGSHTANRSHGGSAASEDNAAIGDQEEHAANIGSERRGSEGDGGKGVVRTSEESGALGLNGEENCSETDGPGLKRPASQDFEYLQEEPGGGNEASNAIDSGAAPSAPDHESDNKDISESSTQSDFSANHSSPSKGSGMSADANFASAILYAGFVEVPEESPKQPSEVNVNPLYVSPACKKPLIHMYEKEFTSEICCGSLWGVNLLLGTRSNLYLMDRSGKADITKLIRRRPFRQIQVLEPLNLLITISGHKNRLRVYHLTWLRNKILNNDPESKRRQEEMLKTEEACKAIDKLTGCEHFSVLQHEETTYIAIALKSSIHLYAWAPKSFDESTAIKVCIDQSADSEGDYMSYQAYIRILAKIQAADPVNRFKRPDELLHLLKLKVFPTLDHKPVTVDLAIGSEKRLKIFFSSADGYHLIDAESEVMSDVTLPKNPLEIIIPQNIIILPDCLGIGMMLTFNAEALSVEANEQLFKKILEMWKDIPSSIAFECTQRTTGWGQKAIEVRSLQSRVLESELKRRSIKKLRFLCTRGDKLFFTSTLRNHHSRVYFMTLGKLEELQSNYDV
ASSAY NOTES: biochemical
Set-up: species or system HEK293/K-562/placenta mixed human extract; Kinobeads chemoproteomic competition binding, quantified by TMT LC-MS/MS, dose response up to 20 uM
RECORDED METRIC: IC50

Check NRK (Homo sapiens, UniProt Q7Z2Y5) data and give IC50 for COc1ccccc1-c1n[nH]c2nc(N[C@H]3CC[C@H](NS(=O)(=O)CCC(F)(F)F)CC3)nc(OC)c12 [compound 31] .
≥ 20 µM

----------
TARGET OR SYSTEM: EPHA2 (Homo sapiens, UniProt P29317)
Sequence (P29317 whole entry): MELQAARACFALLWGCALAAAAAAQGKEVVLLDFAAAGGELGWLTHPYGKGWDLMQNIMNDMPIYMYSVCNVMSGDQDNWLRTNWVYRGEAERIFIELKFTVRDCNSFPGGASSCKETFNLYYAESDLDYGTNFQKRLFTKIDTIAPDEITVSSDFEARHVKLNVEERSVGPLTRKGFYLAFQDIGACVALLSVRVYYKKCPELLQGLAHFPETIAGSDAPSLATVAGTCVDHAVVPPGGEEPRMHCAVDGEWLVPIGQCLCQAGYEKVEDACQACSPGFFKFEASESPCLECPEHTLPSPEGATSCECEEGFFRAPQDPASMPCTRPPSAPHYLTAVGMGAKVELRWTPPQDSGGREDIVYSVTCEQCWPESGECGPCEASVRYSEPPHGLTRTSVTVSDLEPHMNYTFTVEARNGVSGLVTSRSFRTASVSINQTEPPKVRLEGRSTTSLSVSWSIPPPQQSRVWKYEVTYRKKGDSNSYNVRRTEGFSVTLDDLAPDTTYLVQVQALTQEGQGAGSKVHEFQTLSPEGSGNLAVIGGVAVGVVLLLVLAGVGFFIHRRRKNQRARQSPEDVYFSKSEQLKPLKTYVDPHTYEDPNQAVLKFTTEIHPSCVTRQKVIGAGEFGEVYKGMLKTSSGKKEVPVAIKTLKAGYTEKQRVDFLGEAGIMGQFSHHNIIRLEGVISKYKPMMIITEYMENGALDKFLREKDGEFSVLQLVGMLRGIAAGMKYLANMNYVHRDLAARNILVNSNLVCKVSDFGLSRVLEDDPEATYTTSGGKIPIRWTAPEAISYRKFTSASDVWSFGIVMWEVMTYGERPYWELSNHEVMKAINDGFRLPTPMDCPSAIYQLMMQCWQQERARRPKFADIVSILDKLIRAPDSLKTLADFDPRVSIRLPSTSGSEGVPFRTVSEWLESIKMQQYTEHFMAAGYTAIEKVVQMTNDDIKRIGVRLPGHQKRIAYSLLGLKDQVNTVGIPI
ASSAY NOTES: biochemical
Set-up: species or system HEK293/K-562/placenta mixed human extract; Kinobeads chemoproteomic competition binding, quantified by TMT LC-MS/MS, dose response up to 20 uM
RECORDED METRIC: IC50

State IC50 on EPHA2 (Homo sapiens, UniProt P29317). Entry: COc1nc(N[C@H]2CC[C@H](NS(=O)(=O)CC(C)C)CC2)nc2[nH]nc(N3CCOC[C@H]3C)c12
≥ 20 µM

----------
TARGET OR SYSTEM: CAMKK2 (Homo sapiens)
Sequence (Q96RR4 whole entry): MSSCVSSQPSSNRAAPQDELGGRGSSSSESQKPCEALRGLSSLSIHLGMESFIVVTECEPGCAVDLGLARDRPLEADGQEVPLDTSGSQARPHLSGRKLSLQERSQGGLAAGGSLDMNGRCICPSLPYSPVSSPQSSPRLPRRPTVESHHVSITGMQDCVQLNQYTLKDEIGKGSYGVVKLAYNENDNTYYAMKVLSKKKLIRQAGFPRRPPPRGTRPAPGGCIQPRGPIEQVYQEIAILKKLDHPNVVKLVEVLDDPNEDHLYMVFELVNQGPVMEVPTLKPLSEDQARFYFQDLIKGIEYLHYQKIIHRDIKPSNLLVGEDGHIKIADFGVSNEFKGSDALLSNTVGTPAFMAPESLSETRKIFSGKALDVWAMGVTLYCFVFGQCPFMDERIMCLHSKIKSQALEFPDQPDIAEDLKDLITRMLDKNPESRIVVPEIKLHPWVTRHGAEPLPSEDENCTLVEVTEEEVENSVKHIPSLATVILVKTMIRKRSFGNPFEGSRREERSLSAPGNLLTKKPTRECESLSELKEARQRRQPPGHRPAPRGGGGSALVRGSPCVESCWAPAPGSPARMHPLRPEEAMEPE
ASSAY NOTES: biochemical
Set-up: species or system HEK293/K-562/placenta mixed human extract; Kinobeads chemoproteomic competition binding, quantified by TMT LC-MS/MS, dose response up to 20 uM
RECORDED METRIC: IC50 (µM)
Give the number; µM is assumed, so skip it.

Find the measured IC50 of COc1ccccc1-c1n[nH]c2nc(N[C@H]3CC[C@H](NS(=O)(=O)CCC(F)(F)F)CC3)nc(OC)c12 and report it.
8.6

----------
TARGET OR SYSTEM: MAPK3 (Homo sapiens, UniProt P27361)
Sequence (P27361 whole entry): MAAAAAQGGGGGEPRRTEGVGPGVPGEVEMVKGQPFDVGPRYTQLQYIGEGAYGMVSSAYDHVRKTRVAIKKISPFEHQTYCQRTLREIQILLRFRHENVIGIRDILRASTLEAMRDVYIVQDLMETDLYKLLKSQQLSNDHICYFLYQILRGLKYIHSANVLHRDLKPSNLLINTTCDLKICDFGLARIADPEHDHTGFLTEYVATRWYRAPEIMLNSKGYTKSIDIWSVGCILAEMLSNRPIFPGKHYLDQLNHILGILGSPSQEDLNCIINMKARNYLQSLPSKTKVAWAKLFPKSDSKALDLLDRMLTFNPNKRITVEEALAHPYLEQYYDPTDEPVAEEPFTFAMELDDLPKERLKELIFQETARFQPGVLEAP
ASSAY NOTES: biochemical
Set-up: species or system HEK293/K-562/placenta mixed human extract; Kinobeads chemoproteomic competition binding, quantified by TMT LC-MS/MS, dose response up to 20 uM
RECORDED METRIC: IC50

// fetch IC50; item: COc1ccccc1-c1n[nH]c2nc(N[C@H]3CC[C@H](NS(=O)(=O)CCC(F)(F)F)CC3)nc(OC)c12 [compound 31] ; system: MAPK3 (Homo sapiens, UniProt P27361)
≥ 20 µM
